Test system: Mycobacterium tuberculosis
METHOD: Potentiation of kanamycin-induced antibacterial activity against Mycobacterium tuberculosis K204 assessed as kanamycin MIC incubated for 1 day followed by kanamycin addition for 6 days and by Alamar blue assay
Type: functional
SETUP CONDITIONS: K204, 168 h, time 7 day
TEST READOUT: MIC (µg/mL)

> print(dat)
                                        smi             subject.of.test  test.readout  readout.relation  value
1  O=C(CCCN1CCC(O)(c2ccc(F)cc2)CC1)c1ccc(F)cc1  Mycobacterium tuberculosis           MIC                 =      5
2  COc1ccc(C(=O)CCCN2CCC(O)(c3ccc(F)cc3)CC2)cc1  Mycobacterium tuberculosis           MIC                 >     10
3  O=C(CCCN1CCC(O)(c2ccc(Br)cc2)CC1)c1ccc(F)cc1  Mycobacterium tuberculosis           MIC                 =      5
4  O=C(CCCN1CCC(O)(c2ccc(Cl)cc2)CC1)c1ccc(F)cc1  Mycobacterium tuberculosis           MIC                 =      5
5  O=C(CCCN1CCC(O)(c2ccc(F)cc2)CC1)c1ccc(Br)cc1  Mycobacterium tuberculosis           MIC                 =     10

----------
SUBJECT OF TEST: N-acetyltransferase Eis (Mycobacterium tuberculosis (strain ATCC 25618 / H37Rv), UniProt P9WFK7)
Sequence (P9WFK7 whole entry): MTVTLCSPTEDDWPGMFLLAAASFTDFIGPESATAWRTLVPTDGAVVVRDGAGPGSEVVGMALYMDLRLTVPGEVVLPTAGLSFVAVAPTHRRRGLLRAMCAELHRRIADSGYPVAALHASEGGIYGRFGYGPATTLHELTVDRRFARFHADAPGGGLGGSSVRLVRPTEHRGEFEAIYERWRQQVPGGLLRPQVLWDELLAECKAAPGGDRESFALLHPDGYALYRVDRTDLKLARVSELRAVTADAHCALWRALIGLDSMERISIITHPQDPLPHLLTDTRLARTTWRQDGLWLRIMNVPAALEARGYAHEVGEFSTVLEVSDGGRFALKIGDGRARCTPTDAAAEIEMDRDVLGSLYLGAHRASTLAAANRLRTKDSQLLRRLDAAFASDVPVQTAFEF
METHOD: Inhibition of Mycobacterium tuberculosis Eis assessed as Eis-mediated kanamycin acetylation preincubated for 10 mins followed by substrate addition and measured for 2 to 5 mins using acetyl-CoA as substrate in presence of kanamycin by UV-Vis spectroscopy analysis
TEST READOUT: IC50 (µM)

> print(dat)
                                    compound  test.readout  value.unit  readout.relation  value
 1  COc1ccc(C(=O)CCCN2CCC(O)(c3ccc(Br)cc3)CC2)cc1          IC50          µM                 =    5.6
 2  O=C(CCCN1CCC(O)(c2ccc(Cl)cc2)CC1)c1ccccc1          IC50          µM                 =    5.3
 3  CC1CC(C)CN(CCCOc2ccc(F)cc2)C1 (stereo not given)          IC50          µM                 =     42
 4  O=C(CCCN1CCC(O)(c2ccccc2)CC1)c1ccc(F)cc1          IC50          µM                 =   0.85
 5  CC(C)(C)c1ccc(C(=O)CCCN2CCC(O)(c3ccc(F)cc3)CC2)cc1          IC50          µM                 =    200
 6  Cc1ccc(C(=O)CCCN2CCC(O)(c3ccc(Cl)cc3)CC2)cc1          IC50          µM                 =    100
 7  O=C(CCCN1CCC(O)(c2ccc(Cl)cc2)CC1)c1ccc(Cl)cc1 [CHLOROHALOPERIDOL]          IC50          µM                 =    5.1
 8  CCc1ccc(C(=O)CCCN2CCC(O)(c3ccc(Cl)cc3)CC2)cc1          IC50          µM                 =     40
 9  CC1CC(C)CN(CCCC(=O)c2ccc(C(C)(C)C)cc2)C1 (stereo not given)          IC50          µM                 =    200
10  CC(C)(C)c1ccc(C(=O)CCCN2CCC(O)(c3ccc(Cl)cc3)CC2)cc1          IC50          µM                 >    200
11  O=C(CCCN1CCC(O)(c2ccc(F)cc2)CC1)c1ccc(Cl)cc1          IC50          µM                 =    2.6
12  CC(C)c1ccc(C(=O)CCCN2CCC(O)(c3ccc(Cl)cc3)CC2)cc1          IC50          µM                 >    200
13         Fc1ccc(OCCCN2CCC(c3ccccc3)CC2)cc1          IC50          µM                 =     14
14  CC1CCCCN1CCCOc1ccc(F)cc1 (stereo not given)          IC50          µM                 >    200
15  O=C(CCCN1CCC(O)(c2ccc(Br)cc2)CC1)c1ccccc1          IC50          µM                 =    2.2
16  O=C(CCCN1CCC(O)(c2ccc(Br)cc2)CC1)c1ccc(Br)cc1          IC50          µM                 >    200
17  O=C(CCCN1CCC(O)(c2ccc(Cl)cc2)CC1)c1ccc(F)cc1 [HALOPERIDOL]          IC50          µM                 =   0.39
18  O=C(CCCN1CCC(O)(c2ccc(Cl)cc2)CC1)c1ccc(Br)cc1          IC50          µM                 >    200
19        CC(=O)CCCN1CCC(O)(c2ccc(Cl)cc2)CC1          IC50          µM                 =     40
20  Cc1ccc(S(=O)(=O)N2CCC(O)(c3ccc(Cl)cc3)CC2)cc1          IC50          µM                 >    200
21  O=C(CCCN1CCC(O)(c2ccc(Br)cc2)CC1)c1ccc(F)cc1 [BROMPERIDOL]          IC50          µM                 =   0.52
22                N=C(N)NCCCC(=O)c1ccc(F)cc1          IC50          µM                 =    1.1
23  O=C(CCCN1CCC(O)(c2ccc(F)cc2)CC1)c1ccc(Br)cc1          IC50          µM                 =    6.6
24  COc1ccc(C(=O)CCCN2CCC(O)(c3ccc(Cl)cc3)CC2)cc1          IC50          µM                 =     40
25  O=C(CCCN1CCC(O)(c2ccc(F)cc2)CC1)c1ccccc1          IC50          µM                 =    3.1
26  CC(C)(C)c1ccc(C(=O)CCCN2CCC(O)(c3ccc(Br)cc3)CC2)cc1          IC50          µM                 >    200
27  O=C(CCCN1CC=C(n2c(=O)[nH]c3ccccc32)CC1)c1ccc(F)cc1 [DROPERIDOL]          IC50          µM                 =   12.2
28  O=C(CN1CCC(O)(c2ccc(Cl)cc2)CC1)c1ccc(F)cc1          IC50          µM                 =    100
29  COc1ccc(C(=O)CCCN2CCC(O)(c3ccc(F)cc3)CC2)cc1          IC50          µM                 =     42
30  O=C(CCCN1CCC(O)(c2ccc(F)cc2)CC1)c1ccc(F)cc1          IC50          µM                 =   0.76
31  O=C(CCCN1CCCCC1)c1ccc(F)cc1 [PRIMAPERONE]          IC50          µM                 =   0.62
32            O=C(CCCN1CCC(O)CC1)c1ccc(F)cc1          IC50          µM                 =   0.69
33  O=C(CCCN1CCC(O)(c2ccc(Br)cc2)CC1)c1ccc(Cl)cc1          IC50          µM                 =    1.1
34  O=C(CCCN1CC=C(c2ccc(Cl)cc2)CC1)c1ccc(F)cc1          IC50          µM                 =   0.56
35  O=C(CCCN1CCC(c2ccc(Cl)cc2)CC1)c1ccc(F)cc1          IC50          µM                 =    1.1
